// data source = paper PMC12843137

Let's look at some compounds and their measured recovery at 2 h, 5 μM.
Test: Caco-2 cell permeability study
Type: in vitro ADME
Details: human, Caco-2, pH 7.4, Caco-2, 5 μM; read-out: Mean % Solution Recovery A to B
Source text: One of the physicochemical quantities that mirrors the interaction of a compound with the cell membrane is permeability. Traditionally, measuring permeability with the PAMPA model provides estimates of passive permeability across a model membrane. […] Therefore, we measure the cell permeability of the six compounds using Caco-2 cells, so that the apical to basolateral (A to B) and basolateral to apical (B to A) permeabilities, and thereby the efflux ratio, can be determined. […]
Metric Name: recovery at 2 h, 5 μM

>  <Compound>
CCCCOc1ccc(-c2ccc(-c3ccc(Cn4cc(CCCCC[C@H]5OC(=O)CN(C)C(=O)/C=C/[C@@H](CN6CCN(C)CC6)NC(=O)CNC(=O)[C@@](C)(O)C(=O)[C@H]5C)nn4)cc3)cc2)cc1

>  <Measured>
< 92.9%

$$$$
>  <Compound>
C[C@@H]1C(=O)[C@](C)(O)C(=O)NCC(=O)N[C@H](CN2CCN(C)CC2)/C=C/C(=O)N(C)CC(=O)O[C@H]1CCCCCc1cn(CCCCCCCNc2cccc3c2CN(C2CCC(=O)NC2=O)C3=O)nn1 (stereo partly drawn)

>  <Measured>
< 89.4%

$$$$
>  <Compound>
CCCCCCCCCCCCCC1OC(=O)CN(C)C(=O)C=CC(CN2CCN(C)CC2)NC(=O)CNC(=O)C(C)(O)C(=O)C1C (stereo not drawn)

>  <Measured>
< 23.5%

$$$$

* * *

Test: Caco-2 cell permeability study
Type: in vitro ADME
Conditions: human, pH 7.4; Caco-2, 5 μM, 2 h, apical to basolateral

>  <Molecule>
CCCCCCCCCCCCCC1OC(=O)CN(C)C(=O)C=CC(CN2CCN(C)CC2)NC(=O)CNC(=O)C(C)(O)C(=O)C1C (stereo not drawn)

>  <Papp A→B at 2 h, 5 µM>
< 0.0144 ×10⁻⁶ cm/s

$$$$
>  <Molecule>
CCCCOc1ccc(-c2ccc(-c3ccc(Cn4cc(CCCCC[C@H]5OC(=O)CN(C)C(=O)/C=C/[C@@H](CN6CCN(C)CC6)NC(=O)CNC(=O)[C@@](C)(O)C(=O)[C@H]5C)nn4)cc3)cc2)cc1

>  <Papp A→B at 2 h, 5 µM>
< 0.00798 ×10⁻⁶ cm/s

$$$$
>  <Molecule>
C[C@@H]1C(=O)[C@](C)(O)C(=O)NCC(=O)N[C@H](CN2CCN(C)CC2)/C=C/C(=O)N(C)CC(=O)O[C@H]1CCCCCc1cn(CCCCCCCNc2cccc3c2CN(C2CCC(=O)NC2=O)C3=O)nn1 (stereo partly drawn)

>  <Papp A→B at 2 h, 5 µM>
< 0.0116 ×10⁻⁶ cm/s

$$$$
